Listed below are compounds with IC50 for the protein given by its sequence, each taken from published literature.
Target chain: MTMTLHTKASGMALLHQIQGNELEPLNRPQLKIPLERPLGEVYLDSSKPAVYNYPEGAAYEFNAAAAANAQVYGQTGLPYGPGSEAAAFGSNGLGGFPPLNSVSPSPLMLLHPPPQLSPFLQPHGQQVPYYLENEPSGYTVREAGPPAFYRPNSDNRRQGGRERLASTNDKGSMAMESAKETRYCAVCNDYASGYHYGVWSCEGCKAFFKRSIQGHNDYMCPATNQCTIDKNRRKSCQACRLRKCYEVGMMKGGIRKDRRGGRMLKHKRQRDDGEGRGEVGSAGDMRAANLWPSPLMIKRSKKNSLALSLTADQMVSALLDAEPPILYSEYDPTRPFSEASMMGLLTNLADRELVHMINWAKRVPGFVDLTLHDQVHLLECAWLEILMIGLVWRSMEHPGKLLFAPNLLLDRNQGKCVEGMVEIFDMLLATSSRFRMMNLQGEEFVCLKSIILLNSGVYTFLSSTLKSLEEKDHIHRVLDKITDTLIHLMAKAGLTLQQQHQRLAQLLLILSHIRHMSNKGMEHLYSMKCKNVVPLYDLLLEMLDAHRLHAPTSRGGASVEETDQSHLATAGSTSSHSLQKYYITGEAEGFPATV
Return type: number; implicit unit nM.

Use these answered entries as a reference point.
CCCC1=C2c3ccc4nn[nH]c4c3CC2(CC)CCC1=O (stereo not given) : 352
Cc1cc(C)c2c(c1)c(=O)oc1cc(O)ccc12 : 585
Oc1ccc([C@H]2Sc3cc(O)ccc3S[C@H]2c2ccc(OCCN3CCCC3)cc2)cc1 : 18
O=c1c2oc3c(Br)cc(O)cc3c2oc2cc(O)cc(O)c12 : 1260
COc1ccc(-c2nc(Cl)c(-c3ccccc3)c(Oc3ccc(OCCN4CCCC4)cc3)n2)cc1 : 2170

Please give the measured IC50 for this compound: Oc1ccc2c(c1)sc1c3ccccc3n(Cc3ccc(OCCN4CCCCC4)cc3)c21 39

Please give the measured IC50 for this compound: CCCC12CCC(=O)C(Br)=C1c1ccc3[nH]ncc3c1C2 (racemic) 663

Please give the measured IC50 for this compound: CSC1=C(c2ccc(O)cc2)C(=O)c2ccc(O)cc21 3.1

Please give the measured IC50 for this compound: Oc1ccc2c(Oc3ccc(OCCN4CCCCC4)cc3)c(-c3ccc(F)cc3)sc2c1 17.2

Please give the measured IC50 for this compound: C[C@@H]1Cc2c(ccc3[nH]ncc23)[C@@H](c2c(F)cc(OCCN3CC(CF)C3)cc2F)N1CC(C)(C)F 0.2
